# target_system: T1, human gastric inhibitory peptide receptor (GIPR) (human, UniProt P48546 22-466); note: reference of the scale not given here
# T1 sequence (looked up): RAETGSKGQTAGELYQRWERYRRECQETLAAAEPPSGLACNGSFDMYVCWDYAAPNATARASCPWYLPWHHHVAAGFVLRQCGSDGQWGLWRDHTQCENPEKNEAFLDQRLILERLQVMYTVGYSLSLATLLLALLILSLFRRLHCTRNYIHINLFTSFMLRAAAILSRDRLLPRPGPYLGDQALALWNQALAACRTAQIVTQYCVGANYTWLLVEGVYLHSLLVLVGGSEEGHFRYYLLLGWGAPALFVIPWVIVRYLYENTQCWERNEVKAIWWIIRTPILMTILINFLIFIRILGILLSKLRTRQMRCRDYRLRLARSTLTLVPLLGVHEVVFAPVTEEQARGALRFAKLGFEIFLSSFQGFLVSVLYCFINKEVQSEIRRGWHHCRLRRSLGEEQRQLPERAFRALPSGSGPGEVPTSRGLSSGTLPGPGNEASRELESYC
# method_description: cell-based or functional assay
endpoint: hGIPR cAMP EC50 ratio
Answer with a bare number; do not write a unit.

Suppose we examine the binder YXEGTXTSDXSIXLDXKAQXEFIXXLIEGG (Aib2, αMeF(2F)6, 4Pal10, αMeF13 (so in the source), Orn16, (2-[2-(2-Amino-ethoxy)-ethoxy]-acetyl)2-(γ-Glu)-CO-(CH2)16-CO2H on K17, Aib20, D-Glu24, αMeY25, C-terminal NH2) [Example 265] ; what hGIPR cAMP EC50 ratio value has been reported?
7.56

Next:
Suppose we examine the binder YXEGTFTSDYSIXLDEKAQXEFIEYLIAGGPSSGAPPPS (Aib2, αMeL13, (2-[2-(2-Amino-ethoxy)-ethoxy]-acetyl)2-(γ-Glu)-CO-(CH2)18-CO2H on K17, Aib20, C-terminal NH2) [Example 331] ; what hGIPR cAMP EC50 ratio value has been reported?
1.4

Suppose we examine the binder XXEGTFTSDYSIXLDKKAQXAFIXYLIEGGPSSGAPPPS (D-Tyr1, Aib2, αMeL13, (2-[2-(2-Amino-ethoxy)-ethoxy]-acetyl)2-(γ-Glu)-CO-(CH2)18-CO2H on K17, Aib20, D-Glu24, C-terminal NH2) [Example 356] ; what hGIPR cAMP EC50 ratio value has been reported?
0.364

Suppose we examine the binder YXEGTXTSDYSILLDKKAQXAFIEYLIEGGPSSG (Aib2, αMeF(2F)6, (2-[2-(2-Amino-ethoxy)-ethoxy]-acetyl)2-(γ-Glu)-CO-(CH2)16-CO2H on K17, Aib20, C-terminal NH2) [Example 302] ; what hGIPR cAMP EC50 ratio value has been reported?
3.78

Suppose we examine the binder YXEGTFTSDYSILLDKKAQEAFIEYLIEGGPSSGAPPPS (Aib2, (2-[2-(2-Amino-ethoxy)-ethoxy]-acetyl)2-(γ-Glu)-CO-(CH2)18-CO2H on K17, C-terminal NH2) [Example 261] ; what hGIPR cAMP EC50 ratio value has been reported?
0.936

Suppose we examine the binder YXEGTFTSDYSIXLDEKAQXAFIEYLIEGGPSSGAPPPS (Aib2, αMeL13, (2-[2-(2-Amino-ethoxy)-ethoxy]-acetyl)2-(γ-Glu)-CO-(CH2)16-CO2H on K17, Aib20, C-terminal NH2) [Example 323] ; what hGIPR cAMP EC50 ratio value has been reported?
3.24
